# credit: patent US20200199213A1

Could you please report measured OD at 560 nm for the items listed next?
Target: T1, human ANGPTL3 (human, UniProt Q9Y5C1 17-460)
T1 construct: Biotinylated in the ELISA assays; also called hANGPTL3; free ANGPTL3
T1 sequence: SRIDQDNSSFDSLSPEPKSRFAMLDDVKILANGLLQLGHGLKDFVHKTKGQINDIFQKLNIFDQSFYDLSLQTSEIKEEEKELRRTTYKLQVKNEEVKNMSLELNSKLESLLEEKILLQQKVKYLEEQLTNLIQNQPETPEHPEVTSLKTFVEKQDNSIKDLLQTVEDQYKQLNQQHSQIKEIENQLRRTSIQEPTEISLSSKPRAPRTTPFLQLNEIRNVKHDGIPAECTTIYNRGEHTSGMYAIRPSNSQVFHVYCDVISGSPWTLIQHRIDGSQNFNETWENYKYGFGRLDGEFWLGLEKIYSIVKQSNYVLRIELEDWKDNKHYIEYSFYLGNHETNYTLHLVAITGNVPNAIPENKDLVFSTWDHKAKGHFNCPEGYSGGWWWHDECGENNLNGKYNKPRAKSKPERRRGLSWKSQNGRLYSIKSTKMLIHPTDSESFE
Test: ELISA; Ab captured by anti-human Fc; biotinylated antigen at 11.1 nM

Field: example entries. Status: answers known.
Ab with LC variant having a D33A mutation (SEQ ID NO:22) and a HC of SEQ ID NO:6 (antibody, human IgG4 S228P, kappa, F234A L235A, V domains shown, also called D33A Variant Ab; D33A Ab) VH: QVTLKESGPTLVKPTQTLTLTCTFSGFSLSISGVGVGWIRQPPGKALEWLALIYRNDDKRYSPSLKSRLTITKDTSKNQVVLTLTNMDPVDTATYYCARTYSSGWYGNWFDPWGQGTLVTVSS VL: DIVMTQTPLSLPVTPGEPASISCRSSQSLLDSADGNTYLDWYLQKPGQSPQLLIYMLSYRASGVPDRFSGSGSGTDFTLKISRVEAEDVGIYYCMQRIEFPLTFGGGTKVEIKR	0.06 OD 560 nm
Ab with LC variant having a E99Q mutation (SEQ ID NO:25) and a HC of SEQ ID NO:6 (antibody, human IgG4 S228P, kappa, F234A L235A, V domains shown, also called E99Q Variant Ab; E99Q Ab) VH: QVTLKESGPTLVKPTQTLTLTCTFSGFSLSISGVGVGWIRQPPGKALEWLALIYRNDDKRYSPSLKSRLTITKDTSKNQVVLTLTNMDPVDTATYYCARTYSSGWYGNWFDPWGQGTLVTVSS VL: DIVMTQTPLSLPVTPGEPASISCRSSQSLLDSDDGNTYLDWYLQKPGQSPQLLIYMLSYRASGVPDRFSGSGSGTDFTLKISRVEAEDVGIYYCMQRIQFPLTFGGGTKVEIKR	0.062 OD 560 nm
anti-ANGPTL3/8 complex Ab having a LC of SEQ ID NO:5 and a HC of SEQ ID NO:6 (antibody, human IgG4 S228P, kappa, F234A L235A, V domains shown, In the ELISA assays tested as IgG from CHO supernatants; also called the Ab) VH: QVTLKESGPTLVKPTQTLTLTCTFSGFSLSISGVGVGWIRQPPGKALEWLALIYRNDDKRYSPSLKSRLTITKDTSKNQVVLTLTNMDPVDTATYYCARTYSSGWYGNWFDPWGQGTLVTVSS VL: DIVMTQTPLSLPVTPGEPASISCRSSQSLLDSDDGNTYLDWYLQKPGQSPQLLIYMLSYRASGVPDRFSGSGSGTDFTLKISRVEAEDVGIYYCMQRIEFPLTFGGGTKVEIKR	0.046 OD 560 nm

Now let's try a different one.
Annotate the binder Ab with LC variant having a D31S mutation (SEQ ID NO:21) and a HC of SEQ ID NO:6 (antibody, human IgG4 S228P, kappa, F234A L235A, V domains shown, also called D31S Variant Ab; D31S Ab) VH: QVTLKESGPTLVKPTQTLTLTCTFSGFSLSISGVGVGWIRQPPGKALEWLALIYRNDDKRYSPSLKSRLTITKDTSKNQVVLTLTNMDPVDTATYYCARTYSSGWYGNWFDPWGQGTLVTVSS VL: DIVMTQTPLSLPVTPGEPASISCRSSQSLLSSDDGNTYLDWYLQKPGQSPQLLIYMLSYRASGVPDRFSGSGSGTDFTLKISRVEAEDVGIYYCMQRIEFPLTFGGGTKVEIKR with its measured OD at 560 nm. 0.062 OD 560 nm
